- Test system: IGROV1 ovarian
- measurementDescription: NCI tumour cell line growth inhibition, 48 h; in the data active means GI50 below about 0.43 µM; inactive means the rest
Mark one answer only. Choices: active, inactive

Some entries whose results are on file:
[[record]]
chemsmiles = "COc1ccc2c(c1)CCc1[nH]nc(-c3cc(OC)c(OC)c(OC)c3)c1-2"
assignedlabel = "active"

[[record]]
chemsmiles = "Cc1cccc(Cl)c1NC(=O)c1cnc(Nc2cc(N3CCOCC3)cc(N3CCOCC3)c2)s1"
assignedlabel = "active"

[[record]]
chemsmiles = "CN1C(=O)C(=Cc2cn(Cc3ccccc3)c3ccccc23)C(=O)N(C)C1=O"
assignedlabel = "inactive"


Task item: For "Nc1nc2ccc3[nH]ncc3c2c2c1CCCC2" , what call appears in the results of this test?
Reply: inactive
